Each entry below carries its reported self-cleavage.
B1: CPEB3 Ribozyme (parent)
chain: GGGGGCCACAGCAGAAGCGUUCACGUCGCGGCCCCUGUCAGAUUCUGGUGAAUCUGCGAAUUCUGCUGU

# Variants of: B1
# test-method-notes: self-cleavage, relative activity (ratio to wild type); higher = more cleavage; co-transcriptional
attribute-measured: self-cleavage

> print(dat)
    mutant.designation  measured.value
 1           A23U G58C            1.02
 2            G1C A42U             0.2
 3           A16G C27G           0.102
 4           G28U G56C           0.163
 5           G37A A51G           0.332
 6           A10C G41C           0.798
 7           C57A U61G           0.402
 8           A59U C63A           0.377
 9            A8G C32G           0.517
10           A42G A60C           0.405
11            C6A G41U           0.225
12           G25A G56A           0.154
13           C34G C63A           0.424
14            C9A A15C           0.931
15            G1U C63G           0.111
16            G4C G19U           0.103
17           U38C U46G           0.921
18           C27G C63A           0.197
19                G17U           0.643
20            C9G C34U            1.01
21           C22A C34G           0.175
22           C57U U69C           0.554
23           G31C A59G           0.255
24           G14C U43A           0.204
25           U36G U44C           0.118
26           A10C U44G            1.02
27            C7U C54G           0.766
28           U46G G65U           0.913
29           U38C C57U           0.409
30           G37U U69A           0.358
31           C24G A42C           0.385
32                C35G           0.478
33            A8C A52U           0.962
34           U36C U61G           0.601
35            G4U U69G           0.941
36           A23U U38C            0.96
37           G14A C27G           0.116
38           C22A U36C           0.169
39           G48C C63G           0.829
40            C9G G11U           0.922
41            G2U A51C           0.102
42           C22G A40U           0.105
43           A13G C33U           0.946
44           G14U A40C            0.17
45           G17C C63A           0.162
46           C45G U53A           0.921
